- TESTED_ON: T1, IL-1β (UniProt P01584 117-269)
- T1 construct: Antigen immobilised on the Biacore chip
- MEASUREMENT_DESCRIPTION: Biacore, periplasmic extract

{"columns": ["BINDER", "binding result"],
 "data": [
  ["XPA23 light chain W32K (Fab, V domains shown) VH: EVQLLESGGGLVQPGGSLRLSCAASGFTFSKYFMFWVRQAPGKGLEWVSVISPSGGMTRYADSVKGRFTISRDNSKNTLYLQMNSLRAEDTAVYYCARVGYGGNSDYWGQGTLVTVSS VL: DIQMTQSPSSVSASVGDRLTIICRASQDINRKLAWYQQTPGNAPKLLIHSATSLQSGVPSRFSGSGSGTDFTLTINSLQPEDFATYYCQQADSFPLTFGGGTKVEIK", "no binding"],
  ["XPA23 light chain L96K (Fab, V domains shown) VH: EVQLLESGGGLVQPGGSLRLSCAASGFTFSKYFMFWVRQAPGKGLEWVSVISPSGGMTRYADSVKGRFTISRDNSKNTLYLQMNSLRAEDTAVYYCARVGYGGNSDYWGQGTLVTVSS VL: DIQMTQSPSSVSASVGDRLTIICRASQDINRWLAWYQQTPGNAPKLLIHSATSLQSGVPSRFSGSGSGTDFTLTINSLQPEDFATYYCQQADSFPKTFGGGTKVEIK", "no binding"]
]}

Reference source for all entries: patent US20110118131A1
